Origin of measurements: patent US10669285B2

Biological target: ATX (human His-tagged) (Homo sapiens (Human), UniProt Q13822)
pIC50: −log10 of the molar value.
Lab note: compare pIC50 against 8. Equal or greater, write y. Smaller, write n.

smiles_string=O=C(OCc1ccc(OC(F)(F)F)cc1)N1CCc2cc(C(=O)N3CCc4[nH]nnc4C3)nn2CC1 qualitative_label=y
smiles_string=O=C(OCc1ccc(OC(F)F)c(F)c1)N1CCc2cc(C(=O)N3CCc4[nH]nnc4C3)nn2CC1 qualitative_label=n
smiles_string=O=C(OCc1ccc(F)cc1)N1CCc2cc(C(=O)N3CCc4[nH]nnc4C3)nn2CC1 qualitative_label=n
smiles_string=O=C(CCc1ccc(OC(F)(F)F)c(Cl)c1)N1CCc2cc(C(=O)N3CCc4[nH]nnc4C3)nn2CC1 qualitative_label=n
smiles_string=O=C(OCc1cccc(F)c1)N1CCc2cc(C(=O)N3CCc4[nH]nnc4C3)nn2CC1 qualitative_label=n

###

Biological target: UniProt:Q13822
Known IC50 of a selection of compounds
readout: IC50 (nM)

smiles_string=O=C(OCc1ccc(OC(F)(F)F)c(Cl)c1)N1CCc2nc(C(=O)N3CCc4[nH]nnc4C3)cn2CC1 readout=IC50 display_unit=nM measured_number=7
smiles_string=O=C(CCc1ccc(OC(F)(F)F)cc1)N1CCc2cc(C(=O)N3CCc4[nH]nnc4C3)nn2CC1 readout=IC50 display_unit=nM measured_number=14
smiles_string=O=C(CCc1ccc(OC(F)(F)F)c(Cl)c1)N1CCc2nc(C(=O)N3CCc4[nH]nnc4C3)nn2CC1 readout=IC50 display_unit=nM measured_number=50
smiles_string=COc1ccc(CCC(=O)N2CCc3cc(C(=O)N4CCc5[nH]nnc5C4)nn3CC2)cc1 readout=IC50 display_unit=nM measured_number=151
smiles_string=O=C(CCc1ccc(OC(F)(F)F)c(F)c1)N1CCc2cc(C(=O)N3CCc4[nH]nnc4C3)nn2CC1 readout=IC50 display_unit=nM measured_number=13
smiles_string=CC(C)c1cc(C#N)ccc1COC(=O)N1CCc2cc(C(=O)N3CCc4[nH]nnc4C3)nn2CC1 readout=IC50 display_unit=nM measured_number=6
smiles_string=N#Cc1ccc(COC(=O)N2CCc3cc(C(=O)N4CCc5[nH]nnc5C4)nn3CC2)c(F)c1 readout=IC50 display_unit=nM measured_number=60
smiles_string=O=C(OCc1ccc(OC(F)(F)F)cc1)N1CCc2nc(C(=O)N3CCc4[nH]nnc4C3)cn2CC1 readout=IC50 display_unit=nM measured_number=17
smiles_string=O=C(OCc1ccc(OC(F)(F)F)c(F)c1)N1CCc2cc(C(=O)N3CCc4[nH]nnc4C3)nn2CC1 readout=IC50 display_unit=nM measured_number=18
smiles_string=CC(C)(C)C(=O)Nc1cc(C#N)ccc1COC(=O)N1CCc2cc(C(=O)N3CCc4[nH]nnc4C3)nn2CC1 readout=IC50 display_unit=nM measured_number=18

###

pIC50: −log10 of the molar value.
# pIC50 per entry for ATX (human His-tagged) (Homo sapiens (Human))
readout: pIC50

smiles_string=O=C(OCc1ccc(OC(F)(F)F)cc1F)N1CCc2cc(C(=O)N3CCc4[nH]nnc4C3)nn2CC1 measured_number=8.15
smiles_string=O=C(OCc1ccc(OC(F)(F)F)cc1)N1CCc2nc(C(=O)N3CCc4[nH]nnc4C3)nn2CC1 measured_number=7.82
smiles_string=O=C(CCc1ccc(OC(F)(F)F)cc1)N1CCc2nc(C(=O)N3CCc4[nH]nnc4C3)nn2CC1 measured_number=8.22
